test: Toxicity liver stage against HepG2, at 10uM; assay type: cell-based; parameters: test concentration 10 uM, cell line HepG2-A16-CD81EGFP; settings: human, HepG2-A16-CD81EGFP cells; read-out: INHIBITION
This section presents compounds with their documented cytotoxicity at 10 µM values.
Output spec: scalar in %, unitless text.

Solved cases below.
compound="O=C(O)CC(CC(=O)NCCc1cccs1)c1cccs1 (stereo not given)" property_label="cytotoxicity at 10 µM" result_number=-11.4
compound=O=C(Cc1ccon1)N(CCC(F)(F)F)C1CCCC1 property_label="cytotoxicity at 10 µM" result_number=-9.36
compound=CCCc1cc(C(=O)N2Cc3ccccc3C2)[nH]n1 property_label="cytotoxicity at 10 µM" result_number=2.02

Qu. What value of measured cytotoxicity at 10 µM is listed for "CCNc1cc2c(nn1)CCN(C(=O)c1ccnc(N(C)C)c1)C2" ?
Ans. -20.9

Qu. Look at this compound and give its reported cytotoxicity at 10 µM. "Cc1nc2ccccc2n1CCNCc1cccc(C#N)c1"
Ans. -0.591

Qu. What value of measured cytotoxicity at 10 µM is listed for O=C(NCC1(O)CCSC1)c1cccc(-n2cccn2)c1 (stereo not given) ?
Ans. -3.5

Qu. Given "Cc1c(C(=O)NC2CC(C)(C)NC(C)(C)C2)cnn1-c1ccc(F)cc1" , state its recorded cytotoxicity at 10 µM.
Ans. -45.7

Qu. // cytotoxicity at 10 µM lookup, key: "O=C(CO)N1CC2(CCN(c3ccccc3)C2)C1"
Ans. 8.98

###

experiment: Toxicity liver stage against HepG2, at 10uM; type: cell-based; set-up: test concentration 10 uM, cell line HepG2-A16-CD81EGFP; settings: human, HepG2-A16-CD81EGFP cells; read-out: INHIBITION
PROPERTY LABEL: cytotoxicity at 10 µM (%)
Output spec: scalar in %, unitless text.

Previously resolved entries follow.
compound="Cc1nc(C)n(C2CCCN(C(=O)c3nc(C)n4ccccc34)C2)n1 (stereo unspecified)" result_number=-10.9
compound=COc1ccc(OC)c(Sc2ncccc2C(=O)NCC2CC2)c1 result_number=20.7
compound=Cc1ccc(C(=O)O)cc1-c1cccc2c1CCNC2 result_number=7.56
compound=CCn1nc(C)c2nc(C(C)C)nc(N(C)Cc3ccco3)c21 result_number=15.6
compound="CCN1N=C(C(=O)N2CCCC(c3noc(C)n3)C2)CCC1=O (stereo unspecified)" result_number=-12.9

# context switch: different compound, same cytotoxicity at 10 µM
Qu. Field request: cytotoxicity at 10 µM | item: "O=C(O)c1c(-c2cccnc2)ncc2c1CCN(Cc1cccnc1)C2"
Ans. -3.14

###

test: Toxicity liver stage against HepG2, at 10uM; assay type: cell-based; design: test concentration 10 uM, cell line HepG2-A16-CD81EGFP; settings: human, HepG2-A16-CD81EGFP cells; read-out: INHIBITION
Items are presented alongside their recorded cytotoxicity at 10 µM.
The reply should be a number in %, with the unit left off.

// worked examples, cytotoxicity at 10 µM included
molecule=O=C(c1ccco1)N1CCC(CSCc2ccco2)CC1 property_label="cytotoxicity at 10 µM" unit_symbol=% result_number=-6.49
molecule="COc1ccc2c(=O)n(CC3CCNC3)ccc2c1OC (stereo not given)" property_label="cytotoxicity at 10 µM" unit_symbol=% result_number=5.76
molecule=CC(C)c1cc2c(O)nc(CSCC(=O)O)nc2s1 property_label="cytotoxicity at 10 µM" unit_symbol=% result_number=-4.61
molecule="Cc1cnn(CC2CN(CCN3CCCC3=O)CCO2)c1 (stereo not given)" property_label="cytotoxicity at 10 µM" unit_symbol=% result_number=-9.7

Now take the following molecule into account.
Qu. Requested read-out: cytotoxicity at 10 µM. Entry: O=C(CN1CCOCC1)N1CCN(C2CCc3ccc(F)cc32)CC1 (stereo not given)
Ans. 6.24
